Tested on: scuticociliates
protocol_text: Scuticociliates extermination effect of candidate substances in seawater medium
Assay type: cell-based
condition_details: seawater medium, 4 hour, Dosage 2000 ppm
Protocol: For this, scuticociliates were cultured in CHSE-214 cell line (using MEM medium), and then scuticociliates were collected and centrifuged with sterilized seawater or artificial seawater (20‰) to replace them with a seawater medium. Each of 100 μl (1×10^5) was dispensed into each well of 96 wells, followed by further culture for 30 minutes. […]
property_measured: Survival or Death of scuticociliates (activity and shape, microscope)

Solved entries (count: 4):
C1CNCCN1	Survival
c1ccc([C@H]2CN3CCSC3=N2)cc1	Survival
O=[N+]([O-])NC1=NCCN1Cc1ccc(Cl)nc1	Death
c1ccc(C2CN3CCSC3=N2)cc1 (centres unmarked)	Survival

# molecule "CN1CCCN=C1/C=C/c1cccs1" ; its Survival or Death of scuticociliates (activity and shape, microscope) = Survival

# molecule "CC[C@H](C)[C@H]1O[C@]2(C=C[C@@H]1C)C[C@@H]1C[C@@H](C/C=C(\C)[C@@H](O[C@H]3C[C@H](OC)[C@@H](O[C@H]4C[C@H](OC)[C@@H](O)[C@H](C)O4)[C@H](C)O3)[C@@H](C)/C=C/C=C3\CO[C@@H]4[C@H](O)C(C)=C[C@@H](C(=O)O1)[C@]34O)O2" ; its Survival or Death of scuticociliates (activity and shape, microscope) = Death

# molecule "CCCOc1ccc2nc(NC(=O)OC)[nH]c2c1" ; its Survival or Death of scuticociliates (activity and shape, microscope) = Δ

# molecule "CC[C@H](C)[C@H]1O[C@]2(CC[C@@H]1C)C[C@@H]1C[C@@H](C/C=C(\C)[C@@H](O[C@H]3C[C@H](OC)[C@@H](O[C@H]4C[C@H](OC)[C@@H](O)[C@H](C)O4)[C@H](C)O3)[C@@H](C)/C=C/C=C3\CO[C@@H]4[C@H](O)C(C)=C[C@@H](C(=O)O1)[C@]34O)O2" ; its Survival or Death of scuticociliates (activity and shape, microscope) = Survival
